study.target: T1, mouse serum albumin (mouse, UniProt P07724 25-608)
T1 construct: Bought protein, immobilized on a CM5 chip by amine coupling; also called Mouse SA
test: SPR (Biacore 8K), albumin immobilized on CM5 chip, 25 C, 1:1 kinetic fit
metric: kon (M⁻¹ s⁻¹)
Numbers only, in M⁻¹ s⁻¹.

Recorded kon for RLN Analog 3 (other, Single-chain fusion: VHH - (G4Q)5 L1 - RLN2 B chain (desB1) - L2 - RLN2 A chain) EVQLLESGGGLVQPGGSLRLSCAASGRYIDETAVAWFRQAPGKEREFVAGIGGGVDITYYADSVKGRFTISRDNSKNTLYLQMNSLRPEDTAVYYCAARPGRPLITSKVADLYPYWGQGTLVTVSSGGGGQGGGGQGGGGQGGGGQGGGGQSWMEEVIKLCGRELVRAQIAICGMSTWSGGGSGGSGGGQLYSALANKCCHVGCTKRSLARFC , please?
1.7e+06
